Cited source: PubChem BioAssay (Tox21)

measurementTarget: Glucocorticoid receptor (Homo sapiens)
protocolSummary: qHTS assay to identify small molecule agonists of the glucocorticoid receptor (GR) signaling pathway (AID 720691); also: % is scaled to controls: 0 for no effect and ±100 for the full control effect
conditionDetails: GR-bla HeLa, beta-lactamase reporter ratio, 18 h; series mostly up to 62.4 µM
Records with an inconclusive call do not appear. Active and inactive are the calls of the source. Calls follow the shape of the dose curve; as a rule, active = well fitted activation curve with a large enough effect in the signal ratio in the repeat runs (not every such curve was filed as active); inconclusive = weak or mixed curves, or effect the other way; inactive = no such curve, though single readings can be large or run the other way; the % refers to the signal ratio.
endpointName: outcome

# count of solved cases: 6
CC1(C)[C@@H](OC(=O)CCC(=O)O)CC[C@]2(C)[C@H]3C(=O)C=C4[C@@H]5C[C@@](C)(C(=O)O)CC[C@]5(C)CC[C@@]4(C)[C@]3(C)CC[C@@H]12
inactive
NNC(=O)CP(=O)(c1ccccc1)c1ccccc1
inactive
CCOC(=O)[C@H](CCc1ccccc1)N[C@@H](C)C(=O)N(CC(=O)O)C1Cc2ccccc2C1
inactive
CCN(CC)CCNC(=O)COc1ccc(OC)cc1
inactive
CC(C)COCC(CN(Cc1ccccc1)c1ccccc1)N1CCCC1 (configuration not stated)
inactive
O=C(O)CCCCCCCCCCCBr
inactive

Each compound below has a reported value. Please supply its outcome.
1. CC(C)Nc1cccnc1N1CCN(C(=O)c2cc3cc(NS(C)(=O)=O)ccc3[nH]2)CC1
2. FC(F)(F)c1ccccc1Cl
3. O=c1cc(-c2ccccc2)oc2cc(O)cc(O)c12
4. O=C1CCCCCCCCCCOCCCCO1
5. CCC(=O)OC

## Result
inactive
inactive
inactive
inactive
inactive

## Task Determine reported outcome for CC(=O)N/N=C/c1ccc([N+](=O)[O-])o1 ; test system: Glucocorticoid receptor (Homo sapiens).
## Result inactive

---

measurementTarget: Luciferin 4-monooxygenase (Photinus pyralis)
protocolSummary: qHTS assay to identify small molecule inhibitors of firefly luciferase (AID 1224835); also: nearly all actives have a fitted effect of over 25% in size; also: potency is read from the fitted curve at half-maximal effect
conditionDetails: purified P. pyralis luciferase, luminescence inhibition; series mostly up to 52.9 µM
Inconclusive results are not listed. Activity calls are given as the source filed them. Calls follow the shape of the dose curve; as a rule, active = well fitted inhibition curve with a large enough effect in the repeat runs; inconclusive = weak or mixed curves; inactive = flat fitted curve, though single readings scatter.
endpointName: Potency

# count of solved cases: 10
C=C(C)CCCC(C)CCO (stereo not given)
inactive
CC(=O)c1cc2ccccc2s1
inactive
Cc1[nH]cnc1CN1CCc2c(c3ccccc3n2C)C1=O
inactive
COC(=O)c1nc(Cl)c(Cl)nc1N
inactive
C[C@@H](O[C@H]1OCCN(Cc2n[nH]c(=O)[nH]2)[C@H]1c1ccc(F)cc1)c1cc(C(F)(F)F)cc(C(F)(F)F)c1
inactive
CN1C(=O)OC(C)(C)C1=O
inactive
COc1cc(C(=O)NC2CCN(C)CC2)ccc1Nc1ncc2c(n1)N(C1CCCC1)CC(F)(F)C(=O)N2C
inactive
O=C1c2ccccc2C(=O)C1c1nc2ccccc2c(Br)c1O
17.8 µM (active)
Oc1c(I)cc(I)c2cccnc12
inactive
CC1(CN2CCC(n3c(=O)[nH]c4ccccc43)CC2)OCc2ccccc2-n2cccc21 (stereo not given)
inactive

Each compound below has a reported value. Please supply its Potency.
1. CCCCN(CCN(CCCC)C(=O)N1CCOCC1)C(=O)N1CCOCC1
2. O=c1cc(-c2ccccc2)oc2ccc3ccccc3c12
3. CC[C@]1(O)C[C@H]2CN(CCc3c([nH]c4ccccc34)[C@@](C(=O)OC)(c3cc4c(cc3OC)N(C=O)[C@H]3[C@@](O)(C(=O)OC)[C@H](OC(C)=O)[C@]5(CC)C=CCN6CC[C@]43[C@@H]65)C2)C1
4. Oc1cccc(Nc2ccccc2)c1
5. O=C(Cn1ccnc1[N+](=O)[O-])NCCO

## Result
inactive
0.0356 µM (active)
inactive
37.1 µM (active)
inactive

---

measurementTarget: Estrogen receptor (Homo sapiens)
protocolSummary: qHTS assay to identify small molecule agonists of the estrogen receptor alpha (ER-alpha) signaling pathway using the BG1 cell line (AID 743079); also: % is scaled to controls: 0 for no effect and ±100 for the full control effect; nearly all actives have a fitted effect of over 20% in size
conditionDetails: BG1Luc4E2 cells, ERE-luciferase agonist, 22 h
Results filed as inconclusive are left out. Calls of active or inactive are those of the source. Calls follow the shape of the dose curve; as a rule, active = well fitted activation curve with a large enough effect in the repeat runs; inconclusive = weak or mixed curves, or effect the other way; inactive = no such curve, though single readings can be large or run the other way.
Give your call using only these classes: active, inactive

Worked examples, 3 compounds total:
O=C1c2ccccc2C(=O)C1(O)O
inactive
COc1ncnc(NS(=O)(=O)c2ccc(N)cc2)c1OC
inactive
C1C[C@@H]2[C@H]3CC[C@H](C3)[C@@H]2C1
inactive

Could you now look at the following compound, please?
## Task Dear all, I need the recorded test outcome for CCCCCCCCCCC(=O)O , thank you.
## Result inactive

---

protocolSummary: qHTS assay for small molecule agonists of the p53 signaling pathway - cell viability (AID 651633); also: nearly all actives have a fitted effect of over 30% in size; also: potency is read from the fitted curve at half-maximal effect
conditionDetails: p53RE-bla HCT-116 viability, ATP luminescence, 16 h; series mostly up to 83.3 µM
Inconclusive results are not listed. Calls of active or inactive are those of the source. Calls come from the whole dose curve.
endpointName: Potency

CCCCCCNC(=O)n1cc(F)c(=O)[nH]c1=O
0.668 µM (active)
C1COC1
inactive
C[C@@H](O[C@H]1OCCN(Cc2n[nH]c(=O)[nH]2)[C@H]1c1ccc(F)cc1)c1cc(C(F)(F)F)cc(C(F)(F)F)c1
23.7 µM (active)
O=C(O)CCCCCCCCCCCBr
inactive
O=c1[nH]c2ccc(Cl)cc2o1
inactive

Read the next record carefully.
## Task Assign Potency to the following record: CCOC(=O)c1ccc(C#Cc2ccc3c(c2)C(C)(C)CCS3)nc1
## Result inactive

---

protocolSummary: qHTS assay to identify small molecule antagonists of the retinoid-related orphan receptor gamma (ROR-gamma) signaling pathway - cell viability counter screen (AID 1159520); also: nearly all actives have a fitted effect of over 50% in size
conditionDetails: Tet-on RORgamma CHO cells viability, ATP luminescence, 16 h; series mostly up to 92.4 µM
Records with an inconclusive call do not appear. Active and inactive are the calls of the source. Calls come from the whole dose curve; as a rule, active = well fitted cell-killing curve with a large enough effect in the repeat runs; inconclusive = weak or mixed curves, or effect the other way; inactive = no such curve, though single readings can be large or run the other way.
Give your call using only these classes: active, inactive

Worked examples, 5 compounds total:
CCCCOc1ccc(OCCCN2CCOCC2)cc1
inactive
CC(C)C[C@H](NC(=O)[C@H](CCc1ccccc1)NC(=O)CN1CCOCC1)C(=O)N[C@@H](Cc1ccccc1)C(=O)N[C@@H](CC(C)C)C(=O)[C@@]1(C)CO1
active
O=C(CCCN1CC=C(n2c(=O)[nH]c3ccccc32)CC1)c1ccc(F)cc1
inactive
CC1CC(C)C(=O)C1=O (centres undefined)
inactive
O=C(O)CCCCCCCCCCCBr
inactive

## Task Dear all, I need the recorded test outcome for c1ccc(C[n+]2cccc3ccccc32)cc1 , thank you.
## Result inactive

## Task Dear all, I need the recorded test outcome for O=C=Nc1ccc(Cl)c(Cl)c1 , thank you.
## Result inactive

## Task Dear all, I need the recorded test outcome for Clc1cc(Cl)nc(Cl)n1 , thank you.
## Result inactive

## Task Dear all, I need the recorded test outcome for CCOc1ccccc1O[C@H](c1ccccc1)[C@H]1CNCCO1 , thank you.
## Result inactive

---

protocolSummary: qHTS assay for small molecule agonists of the antioxidant response element (ARE) signaling pathway - cell viability counter screen (AID 743203); also: nearly all actives have a fitted effect of over 55% in size
conditionDetails: ARE-bla HepG2 viability, CellTiter-Glo luminescence, 16 h; series mostly up to 73.3 µM
Results filed as inconclusive are left out. The source made the active and inactive calls. Calls come from the whole dose curve.
Give your call using only these classes: 1.0 for active, 0.0 for inactive

Worked examples, 6 molecules total:
CCCCN(CCN(CCCC)C(=O)N1CCOCC1)C(=O)N1CCOCC1
0.0
CCN(CC)CCNC(=O)COc1ccc(OC)cc1
0.0
CC(=O)OCC[N+](C)(C)C
0.0
CCCC(=O)C(=O)O
0.0
COC(=O)CCS
0.0
C[C@]1(Cn2ccnn2)[C@H](C(=O)O)N2C(=O)C[C@H]2S1(=O)=O
0.0

## Task Dear all, I need the recorded test outcome for O=C(Cn1ccnc1[N+](=O)[O-])NCCO , thank you.
## Result 0.0

## Task Dear all, I need the recorded test outcome for Cc1c(C)c2c(c(C)c1OC(=O)CCC(=O)OCCO)CC[C@@](C)(CCC[C@H](C)CCC[C@H](C)CCCC(C)C)O2 , thank you.
## Result 0.0

## Task Dear all, I need the recorded test outcome for CCC=CC#N , thank you.
## Result 0.0

## Task Dear all, I need the recorded test outcome for Nc1ccc(N=Nc2ccccc2)c(N)c1 , thank you.
## Result 0.0

## Task Dear all, I need the recorded test outcome for C=CCc1ccccc1OCC(O)CNC(C)C (configuration not stated) , thank you.
## Result 0.0

## Task Dear all, I need the recorded test outcome for CC(C)Nc1cccnc1N1CCN(C(=O)c2cc3cc(NS(C)(=O)=O)ccc3[nH]2)CC1 , thank you.
## Result 0.0

## Task Dear all, I need the recorded test outcome for CC(=O)c1ccc([N+](=O)[O-])cc1 , thank you.
## Result 0.0

## Task Dear all, I need the recorded test outcome for O=C1c2ccccc2C(=O)C1c1ccc(Br)cc1 , thank you.
## Result 0.0

## Task Dear all, I need the recorded test outcome for O=c1[nH]ncc2ccccc12 , thank you.
## Result 0.0

## Task Dear all, I need the recorded test outcome for CCOc1ccccc1O[C@H](c1ccccc1)[C@H]1CNCCO1 , thank you.
## Result 0.0

## Task Dear all, I need the recorded test outcome for NC1[C@H]2CN(c3nc4c(cc3F)c(=O)c(C(=O)O)cn4-c3ccc(F)cc3F)C[C@@H]12 (some centres not stated) , thank you.
## Result 0.0

## Task Dear all, I need the recorded test outcome for Cc1ccccc1S , thank you.
## Result 0.0

## Task Dear all, I need the recorded test outcome for O=c1[nH]c2ccc(Cl)cc2o1 , thank you.
## Result 0.0

## Task Dear all, I need the recorded test outcome for O=C=Nc1cccc(C(F)(F)F)c1 , thank you.
## Result 0.0

## Task Dear all, I need the recorded test outcome for Cc1cc(O)c(C)c(C)c1O , thank you.
## Result 0.0

## Task Dear all, I need the recorded test outcome for CCC(=O)C1CC(C(C)C)CC=C1C (configuration not stated) , thank you.
## Result 0.0

## Task Dear all, I need the recorded test outcome for C[C@@H]1CN(CCCn2c3ccccc3c3ccccc32)C[C@H](C)N1 , thank you.
## Result 1.0

## Task Dear all, I need the recorded test outcome for O=C1c2ccccc2C(=O)c2c(O)c(O)cc(O)c21 , thank you.
## Result 0.0

## Task Dear all, I need the recorded test outcome for O=C(/C=C/c1ccccc1)OCCc1ccccc1 , thank you.
## Result 0.0

## Task Dear all, I need the recorded test outcome for CCOc1ccc(Cc2nccc3cc(OCC)c(OCC)cc23)cc1OCC , thank you.
## Result 0.0

## Task Dear all, I need the recorded test outcome for N#[N+]c1ccc2c(S(=O)(=O)[O-])cccc2c1O , thank you.
## Result 0.0
